Tested on: MCF7
Assay: NCI tumour cell line growth inhibition, 48 h
Activity calls are given as the source filed them. Cut-off read from the data, not from the text of the source: active = GI50 up to about 1.1 µM and inactive = higher.
Readings of GI50 for the listed molecules

MOLECULE	EXPERIMENTAL VALUE
Oc1ccc(-c2nc(-c3cccnc3)c(-c3ccc(Cl)cc3)[nH]2)cc1	11.3 µM (inactive)

GI50 in this record for Cc1ccc(NC(=O)/C(Cc2nc3ccc([N+](=O)[O-])cc3nc2O)=N\NC(=O)C[n+]2ccccc2)c(C)c1 : 38.5 µM (inactive)

GI50 in this record for O=CC(I)=C(c1ccccc1)c1ccccc1 : 16.3 µM (inactive)

GI50 in this record for O=C(O)c1cccc(OCCOc2cccc(C(=O)O)c2[N+](=O)[O-])c1[N+](=O)[O-] : > 100 µM (inactive)

GI50 in this record for CCC(C=O)P1(=O)OC(C)(C)CN1C(C)(C)C (stereo not drawn) : 84.3 µM (inactive)

GI50 in this record for COC(=O)[C@H](COC(C)(C)C)NC(=O)N[C@H](C)c1ccccc1 : > 100 µM (inactive)

GI50 in this record for CCOC1C=CC(=O)C(CO)O1 (stereo not drawn) : 4.68 µM (inactive)

GI50 in this record for CC[C@H](C)[C@H]1NC(=O)[C@@H](NC(=O)[C@@H](CC(C)C)N(C)C(=O)C2CCCN2C(=O)[C@H](C)O)[C@@H](C)OC(=O)[C@H](Cc2ccccc2)N(C)C(=O)[C@@H]2CCCN2C(=O)[C@H](CC(C)C)NC(=O)[C@@H](C)C(=O)[C@H](C(C)C)OC(=O)C[C@@H]1O (stereo partly drawn) : < 0.00625 µM (active)

----------
Readings of GI50 for the listed compounds
Tested on: Malme-3M
Assay: NCI tumour cell line growth inhibition, 48 h
Activity calls are given as the source filed them. Rule as the data show it: active = GI50 up to about 1.1 µM and inactive = higher.

> print(dat)
                                   compound   experimental.value
1  COc1ccc2cc(C(=O)Nc3ccc(O)c(C(=O)O)c3)ccc2c1OC  > 100 µM (inactive)

GI50 in this record for CN1CN(c2ccccc2)C2(CCN(CCc3csc4ccccc34)CC2)C1=O : 15 µM (inactive)

GI50 in this record for CSC1(SC)CCCCCCCCCCC1 : 25.5 µM (inactive)

GI50 in this record for CC1=NN2CCC(=O)N=C2S1 : > 100 µM (inactive)

GI50 in this record for CC(=O)C1=C(O)C(N)C2Cc3c(c(O)c4c(O)c(C)ccc4c3C)C(=O)C2(O)C1=O (stereo unspecified) : 1.29 µM (inactive)

GI50 in this record for CCOP(=O)(OCC)c1c(C(=O)OC)cc(=O)[nH]c1-c1ccc(C)cc1 : 6.1 µM (inactive)

----------
Tested on: OVCAR-4
Test: NCI tumour cell line growth inhibition, 48 h
Calls of active or inactive are those of the source. Rule as the data show it: active = GI50 up to about 1.1 µM and inactive = higher.
MEASURED PROPERTY: GI50

Some entries whose results are on file:
> print(dat)
                                    compound  measured.property   experimental.value
 1          COc1ccc(/C=C(/C#N)C(N)=O)c(OC)c1               GI50  > 100 µM (inactive)
 2  CC(Cl)(/C=C/Cl)C(Cl)/C=C/C(Cl)(CCl)CBr (stereo unspecified)               GI50   3.05 µM (inactive)
 3  CCC1([N+](=O)[O-])CC2C=CC1C2 (stereo unspecified)               GI50  > 100 µM (inactive)
 4  O=C(Nc1nc2ncn(CC(COc3ccccc3)OC(=O)c3ccccc3)c2c(=O)[nH]1)c1ccccc1 (stereo unspecified)               GI50  > 100 µM (inactive)
 5                 c1csc(-c2ccsc2-c2cccs2)c1               GI50     33 µM (inactive)
 6  COC(=O)CCC1(NS(=O)(=O)c2ccc(C)cc2)CCC(C(C)(C)C)CC1 (stereo unspecified)               GI50   11.2 µM (inactive)
 7       CN(C(=O)C1=CCC2(CC1)OCCO2)c1ccccc1I               GI50  > 100 µM (inactive)
 8  COc1cc(C2c3cc4c(cc3[C@@H](Nc3ccc5c(c3)OCCO5)C3COC(=O)[C@H]23)OCO4)cc(OC)c1O (stereo partly specified)               GI50   5.97 µM (inactive)
 9  CC(C)(C)c1c2c(c(C(C)(C)C)c3c1OCN(Cc1ccccc1)C3)OCN(Cc1ccccc1)C2               GI50   44.7 µM (inactive)
10  COc1ccc(C(C)NNC(=O)c2cc[n+]([BH2-]C#N)cc2)cc1F (stereo unspecified)               GI50  > 100 µM (inactive)

Would you kindly look at the next entry?
GI50 in this record for O=C(O)c1oc2ccc([N+](=O)[O-])c3c2c1CCC3 : > 100 µM (inactive)

----------
Test system: SK-OV-3
Assay: NCI tumour cell line growth inhibition, 48 h
The source made the active and inactive calls. No stated cut-off is given here; in the data, active = GI50 up to about 1.1 µM and inactive = higher.
MEASURED PROPERTY: GI50

GI50 in this record for Cc1c2cc[n+](C)cc2c(C)c2c1sc1ccccc12 : 1.49 µM (inactive)

GI50 in this record for COc1ccc(/C=C(/C#N)C(N)=O)c(OC)c1 : > 100 µM (inactive)

GI50 in this record for C(CCCCc1nnc(N2CCOCC2)o1)CCCc1nnc(N2CCOCC2)o1 : > 100 µM (inactive)

GI50 in this record for O=CC(I)=C(c1ccccc1)c1ccccc1 : 13.6 µM (inactive)

GI50 in this record for Cc1cn(C2CC(O)C(Cn3nncc3Cn3nc(Br)c(=O)[nH]c3=O)O2)c(=O)[nH]c1=O (stereo unspecified) : > 100 µM (inactive)

GI50 in this record for Cc1ncc(CSc2ccccc2N)c(CO)c1O : > 100 µM (inactive)

GI50 in this record for O=S1(=O)OCCOS(=O)(=O)C1Br : > 100 µM (inactive)

GI50 in this record for Cc1ccc(S(=O)(=O)N/N=c2\c(C)c(C3=NS(=O)(=O)c4cc(S(N)(=O)=O)c(Cl)cc4N3)oc3c(Cl)cc(Cl)cc23)cc1 : > 100 µM (inactive)

GI50 in this record for CC(=O)C1=C(O)C(N)C2Cc3c(c(O)c4c(O)c(C)ccc4c3C)C(=O)C2(O)C1=O (stereo unspecified) : 3.53 µM (inactive)

GI50 in this record for S=C=NC1CCC(c2cc3ccccc3s2)(N2CCCCC2)CC1 (stereo unspecified) : 2.22 µM (inactive)

GI50 in this record for CCCCCCC(C)CC(CCCCCC)NCCOC(=O)c1ccc([N+](=O)[O-])cc1 (stereo unspecified) : 16.3 µM (inactive)

GI50 in this record for COc1ccc(Nc2nc(N)c(C(=O)c3ccco3)s2)cc1 : 35 µM (inactive)

GI50 in this record for COc1ccc(OC)c(/C=C(/C#N)c2ccccc2)c1 : 50 µM (inactive)

GI50 in this record for C=C(C)[C@@H]1CC[C@]2(C(=O)O)CC[C@]3(C)[C@H](CC[C@@H]4[C@@]5(C)CC(=O)C(C)(C)[C@@H]5CC[C@]43C)[C@@H]12 : 10 µM (inactive)

GI50 in this record for CCOC(=O)/C(=C\c1ccccc1)C(=O)CCN1CCOCC1 : 23 µM (inactive)

GI50 in this record for O=C1CC2CCCCC2=C1O (stereo unspecified) : > 100 µM (inactive)

----------
System: HL-60
Test: NCI tumour cell line growth inhibition, 48 h
Calls of active or inactive are those of the source. Rule as the data show it: active = GI50 up to about 1.1 µM and inactive = higher.
Classes to choose from: active, inactive

Reference set (3 entries):
COMPOUND	MEASURED ON	GROUP LABEL
CC1(C)C=C(/C=N/Nc2ccccc2)C(C#N)=C(O)C1(C#N)C#N	HL-60	inactive
Oc1ccc(Cl)cc1-c1cc(-c2ccccc2)nc(NCN2CCCCC2)n1	HL-60	inactive
CN(C)CC(C)(C)C(/C=C/c1ccccc1)=N\Nc1ccccc1	HL-60	inactive

# ---- query compound ----
Asked: // param item: CSC1(C)CC2C(CC1N1CCCCC1)C2(C)C (centres undefined) ; yields the recorded call
Given back: inactive

----------
Test system: SW-620
Experiment: NCI tumour cell line growth inhibition, 48 h
Activity calls are given as the source filed them. Cut-off read from the data, not from the text of the source: active = GI50 up to about 1.1 µM and inactive = higher.
MEASURED PROPERTY: GI50

> print(dat)
                                   compound  measured.property   experimental.value
1  CS/C(=N\C#N)NC1CC(n2cc(C)c(=O)[nH]c2=O)OC1CO (stereo not drawn)               GI50  > 100 µM (inactive)
2  CCOC(=O)c1nc2ccc(C(F)(F)F)cc2nc1Nc1ccc(F)cc1               GI50  > 100 µM (inactive)
3  COc1cc(C2SCC(=O)N2c2cccc(Cl)c2)cc(OC)c1OC (stereo not drawn)               GI50  > 100 µM (inactive)
4     COc1ccc(Nc2nc(N)c(C(=O)c3ccco3)s2)cc1               GI50   13.2 µM (inactive)
5  CCC(C=O)P1(=O)OC(C)(C)CN1C(C)(C)C (stereo not drawn)               GI50  > 100 µM (inactive)
6  COC(=O)[C@]12CC=C3O[C@@H]4OC5(CCCCC5)O[C@@H]4[C@H]3C1C(=O)C=CC2=O (stereo partly drawn)               GI50   15.9 µM (inactive)

GI50 in this record for NC(=O)N=C(NCc1ccccc1)NCc1ccccc1 : > 100 µM (inactive)

Numbers sourced from ChEMBL document CHEMBL1201862.
